- Assay protocol: chemical genetic growth profiling, strain panel (AID 1159580);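 note: tested at 20 µM; growth read once vehicle control cultures reached saturation at 30 °C; 1 = growth at the plate median or of vehicle wells; lower values mean less growth of the strain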
- Protocol conditions: S. cerevisiae deletion strains, growth OD, locus YMR277W, strain FCP1, stronger effect = lower value
The whole screen tested about 5,500 compounds, of which about 2,000 (36%) were called active. About 18% were inconclusive and are not listed. The list shows a part of the results.
Property: normalized growth; scope: individual molecules
# output: bare number, no unit

Example cases with answers are listed next.
Molecule	normalized growth
Clc1cccc(Nc2ncc(-c3ccc4c(c3)OCCCO4)s2)c1	0.968
C/C(=N/NC(=S)NCC(C)(C)C)c1cc(F)cc(Cl)c1O	0.96
CC1CCC(C(C)C)C(N(Cc2ccccc2)C(=O)c2ccccc2)C1 (stereo not drawn)	0.987
Cc1c(S(=O)(=O)Nc2cccc([N+](=O)[O-])c2)sc2ccc(Cl)cc12	0.989
Cn1nccc1-c1cc(Cl)cc(Cl)c1O	0.934
Clc1ccccc1-c1csc(-c2ccncc2)n1	0.963

Let us examine a further case.
Exercise: Entry CNC(=O)Sc1c(-c2ccc(Cl)cc2)nn(C(=O)NC)c1SC : reported normalized growth = ?
Key: 0.979
